# collection of MIC values tested on M. xenopi (ATCC 19250)
Report the figure along with its unit, number first.

Param readout= MIC; system= M. xenopi (ATCC 19250); entry= CO[C@H]1/C=C/O[C@@]2(C)Oc3c(C)c(O)c4c(c3C2=O)C2=NC3(CCN(CC(C)C)CC3)NC2=C(NC(=O)/C(C)=C\C=C\[C@H](C)[C@H](O)[C@@H](C)[C@@H](O)[C@@H](C)[C@H](OC(=O)N2CCC3(CCN(C)CC3)CC2)[C@@H]1C)C4=O ; returns value.
0.25 µg/mL

Next up: CO[C@H]1/C=C/O[C@@]2(C)Oc3c(C)c(O)c4c(c3C2=O)C2=NC3(CCN(CC(C)C)CC3)NC2=C(NC(=O)/C(C)=C\C=C\[C@H](C)[C@H](O)[C@@H](C)[C@@H](O)[C@@H](C)[C@H](OC(=O)N2CCC(N(C)c3ccccc3)CC2)[C@@H]1C)C4=O
0.016 µg/mL

What would you report for CO[C@H]1/C=C/O[C@@]2(C)Oc3c(C)c(O)c4c(c3C2=O)C2=NC3(CCN(CC(C)C)CC3)NC2=C(NC(=O)/C(C)=C\C=C\[C@H](C)[C@H](O)[C@@H](C)[C@@H](O)[C@@H](C)[C@H](OC(=O)N2CCC(NC(C)C)CC2)[C@@H]1C)C4=O ?
0.25 µg/mL

Subsequent entry: CO[C@H]1/C=C/O[C@@]2(C)Oc3c(C)c(O)c4c(c3C2=O)C2=NC3(CCN(CC(C)C)CC3)NC2=C(NC(=O)/C(C)=C\C=C\[C@H](C)[C@H](O)[C@@H](C)[C@@H](O)[C@@H](C)[C@H](OC(=O)N2CCC3(CCN(CC5CCCCC5)CC3)CC2)[C@@H]1C)C4=O
0.008 µg/mL

* * *

# MIC annotations
# Tested on: M. abscessus (ATCC 19977)
# experimental-protocol: MIC by broth microdilution, M. abscessus in cation adjusted Mueller Hinton broth
# Type: cell-based
# assay-setup: Mycobacteroides abscessus, ATCC19977, 96 h; ATCC 19977; cation adjusted Mueller Hinton broth without growth supplement; 30° C., 4 days; read-out: MIC M. abscessus MH
# Procedure: MIC values were determined by broth microdilution method according to the CLSI guidelines with the following exceptions: MIC against A. baumannii was performed in RPMI medium supplemented with 10% FCS and MIC against M. abscessus was performed in Middlebrook 7H9 broth supplemented with Middlebrook ADC growth supplement (10%; see column “M. abscessus 7H9”). […]
In your response, the unit should come after the numeric value.

Recorded MIC, per entry:
smiles-record	target-system	MIC
CO[C@H]1/C=C/O[C@@]2(C)Oc3c(C)c(O)c4c(c3C2=O)C2=NC3(CCN(CC(C)C)CC3)NC2=C(NC(=O)/C(C)=C\C=C\[C@H](C)[C@H](O)[C@@H](C)[C@@H](O)[C@@H](C)[C@H](OC(=O)N2CCC(c3ccncc3)CC2)[C@@H]1C)C4=O	M. abscessus (ATCC 19977)	0.25 µg/mL
CO[C@H]1/C=C/O[C@@]2(C)Oc3c(C)c(O)c4c(c3C2=O)C2=NC3(CCN(CC(C)C)CC3)NC2=C(NC(=O)/C(C)=C\C=C\[C@H](C)[C@H](O)[C@@H](C)[C@@H](O)[C@@H](C)[C@H](OC(=O)N2CCN(C3CCCCC3)CC2)[C@@H]1C)C4=O	M. abscessus (ATCC 19977)	0.06 µg/mL
CO[C@H]1/C=C/O[C@@]2(C)Oc3c(C)c(O)c4c(c3C2=O)C2=NC3(CCN(CC(C)C)CC3)NC2=C(NC(=O)/C(C)=C\C=C\[C@H](C)[C@H](O)[C@@H](C)[C@@H](O)[C@@H](C)[C@H](OC(=O)NC2CCN(C3CCCCC3)CC2)[C@@H]1C)C4=O	M. abscessus (ATCC 19977)	1 µg/mL
CO[C@H]1/C=C/O[C@@]2(C)Oc3c(C)c(O)c4c(c3C2=O)C2=NC3(CCN(CC(C)C)CC3)NC2=C(NC(=O)/C(C)=C\C=C\[C@H](C)[C@H](O)[C@@H](C)[C@@H](O)[C@@H](C)[C@H](OC(=O)NC2CCN(Cc3ccccc3)CC2)[C@@H]1C)C4=O	M. abscessus (ATCC 19977)	0.25 µg/mL
CO[C@H]1/C=C/O[C@@]2(C)Oc3c(C)c(O)c4c(c3C2=O)C2=NC3(CCN(CC(C)C)CC3)NC2=C(NC(=O)/C(C)=C\C=C\[C@H](C)[C@H](O)[C@@H](C)[C@@H](O)[C@@H](C)[C@H](OC(=O)N2CCN(Cc3ccco3)CC2)[C@@H]1C)C4=O	M. abscessus (ATCC 19977)	2 µg/mL

Please turn your attention to the following entry.
What value of MIC has been recorded for this entry: CO[C@H]1/C=C/O[C@@]2(C)Oc3c(C)c(O)c4c(c3C2=O)C2=NC3(CCN(CC(C)C)CC3)NC2=C(NC(=O)/C(C)=C\C=C\[C@H](C)[C@H](O)[C@@H](C)[C@@H](O)[C@@H](C)[C@H](OC(=O)N2CCC3(CC2)CCN(C(C)C)CC3)[C@@H]1C)C4=O
1 µg/mL

* * *

# Tested on: M. abscessus (ATCC 19977)
# experimental-protocol: MIC by broth microdilution, M. abscessus in cation adjusted Mueller Hinton broth
# Format: cell-based
# assay-setup: Mycobacteroides abscessus, ATCC19977, 96 h; ATCC 19977; cation adjusted Mueller Hinton broth without growth supplement; 30° C., 4 days; read-out: MIC M. abscessus MH
# Method: MIC values were determined by broth microdilution method according to the CLSI guidelines with the following exceptions: MIC against A. baumannii was performed in RPMI medium supplemented with 10% FCS and MIC against M. abscessus was performed in Middlebrook 7H9 broth supplemented with Middlebrook ADC growth supplement (10%; see column “M. abscessus 7H9”). […]
MIC listing for selected molecules.

Here's what some known entries look like.
smiles-record	target-system	MIC
CO[C@H]1/C=C/O[C@@]2(C)Oc3c(C)c(O)c4c(c3C2=O)C2=NC3(CCN(CC(C)C)CC3)NC2=C(NC(=O)/C(C)=C\C=C\[C@H](C)[C@H](O)[C@@H](C)[C@@H](O)[C@@H](C)[C@H](OC(=O)NC2CCN(CC3CCCCC3)CC2)[C@@H]1C)C4=O	M. abscessus (ATCC 19977)	0.25 µg/mL
CO[C@H]1/C=C/O[C@@]2(C)Oc3c(C)c(O)c4c(c3C2=O)C2=NC3(CCN(CC(C)C)CC3)NC2=C(NC(=O)/C(C)=C\C=C\[C@H](C)[C@H](O)[C@@H](C)[C@@H](O)[C@@H](C)[C@H](OC(=O)N2CCC(N3CCCC3)CC2)[C@@H]1C)C4=O	M. abscessus (ATCC 19977)	1 µg/mL
CO[C@H]1/C=C/O[C@@]2(C)Oc3c(C)c(O)c4c(c3C2=O)C2=NC3(CCN(CC(C)C)CC3)NC2=C(NC(=O)/C(C)=C\C=C\[C@H](C)[C@H](O)[C@@H](C)[C@@H](O)[C@@H](C)[C@H](OC(=O)N2CCC3(CCN(CC5CCCCC5)CC3)CC2)[C@@H]1C)C4=O	M. abscessus (ATCC 19977)	0.25 µg/mL
CO[C@H]1/C=C/O[C@@]2(C)Oc3c(C)c(O)c4c(c3C2=O)C2=NC3(CCN(CC(C)C)CC3)NC2=C(NC(=O)/C(C)=C\C=C\[C@H](C)[C@H](O)[C@@H](C)[C@@H](O)[C@@H](C)[C@H](OC(=O)N2CCN(c3ccccc3)CC2)[C@@H]1C)C4=O	M. abscessus (ATCC 19977)	0.5 µg/mL
CO[C@H]1/C=C/O[C@@]2(C)Oc3c(C)c(O)c4c(c3C2=O)C2=NC3(CCN(CC(C)C)CC3)NC2=C(NC(=O)/C(C)=C\C=C\[C@H](C)[C@H](O)[C@@H](C)[C@@H](O)[C@@H](C)[C@H](OC(=O)N2CCC3(CCN(C)CC3)CC2)[C@@H]1C)C4=O	M. abscessus (ATCC 19977)	2 µg/mL
CCCCN1CCC(NC(=O)O[C@H]2[C@H](C)[C@H](O)[C@H](C)[C@@H](O)[C@@H](C)/C=C/C=C(/C)C(=O)NC3=C4NC5(CCN(CC(C)C)CC5)N=C4c4c(c(O)c(C)c5c4C(=O)[C@@](C)(O/C=C/[C@H](OC)[C@H]2C)O5)C3=O)CC1	M. abscessus (ATCC 19977)	0.5 µg/mL

Can you look up the measured MIC of CO[C@H]1/C=C/O[C@@]2(C)Oc3c(C)c(O)c4c(c3C2=O)C2=NC3(CCN(CC(C)C)CC3)NC2=C(NC(=O)/C(C)=C\C=C\[C@H](C)[C@H](O)[C@@H](C)[C@@H](O)[C@@H](C)[C@H](OC(=O)N2CCC3(CCN(CC(C)C)CC3)CC2)[C@@H]1C)C4=O for me?
0.25 µg/mL

Origin of values: patent US20260234161A1
